assayed_target: human mGluR5A (Homo sapiens)
procedure_text: mGluR5 FLIPR Assay
cond: positive modulator activity; HEK293 (ZF) cells with human mGluR5A and rat GLAST; Ca++ response to ~EC10 glutamate
# EC50 per record follows

                                   compound                assayed_target     measurement
0  COC(=O)c1cccc(C#Cc2cccc([C@H]3NC(=O)O[C@@H]3c3cccc(OC)c3)c2)c1  human mGluR5A (Homo sapiens)  100 to 1000 nM
1  O=C1N[C@H](c2cncc(C#Cc3ccccc3F)c2)[C@@H](c2cccc(F)c2F)O1  human mGluR5A (Homo sapiens)        < 100 nM

# input for lookup
Incoming: Which measured EC50 value corresponds to O=C1N[C@@H](c2cncc(C#Cc3ccccc3)c2)[C@H](c2cccc(Cl)c2Cl)O1 (single isomer, unassigned) ?
Outgoing: > 1000 nM

----------
assayed_target: human mGluR5A (Homo sapiens, UniProt P41594)
Sequence (P41594 21-1180 isoform P41594-2): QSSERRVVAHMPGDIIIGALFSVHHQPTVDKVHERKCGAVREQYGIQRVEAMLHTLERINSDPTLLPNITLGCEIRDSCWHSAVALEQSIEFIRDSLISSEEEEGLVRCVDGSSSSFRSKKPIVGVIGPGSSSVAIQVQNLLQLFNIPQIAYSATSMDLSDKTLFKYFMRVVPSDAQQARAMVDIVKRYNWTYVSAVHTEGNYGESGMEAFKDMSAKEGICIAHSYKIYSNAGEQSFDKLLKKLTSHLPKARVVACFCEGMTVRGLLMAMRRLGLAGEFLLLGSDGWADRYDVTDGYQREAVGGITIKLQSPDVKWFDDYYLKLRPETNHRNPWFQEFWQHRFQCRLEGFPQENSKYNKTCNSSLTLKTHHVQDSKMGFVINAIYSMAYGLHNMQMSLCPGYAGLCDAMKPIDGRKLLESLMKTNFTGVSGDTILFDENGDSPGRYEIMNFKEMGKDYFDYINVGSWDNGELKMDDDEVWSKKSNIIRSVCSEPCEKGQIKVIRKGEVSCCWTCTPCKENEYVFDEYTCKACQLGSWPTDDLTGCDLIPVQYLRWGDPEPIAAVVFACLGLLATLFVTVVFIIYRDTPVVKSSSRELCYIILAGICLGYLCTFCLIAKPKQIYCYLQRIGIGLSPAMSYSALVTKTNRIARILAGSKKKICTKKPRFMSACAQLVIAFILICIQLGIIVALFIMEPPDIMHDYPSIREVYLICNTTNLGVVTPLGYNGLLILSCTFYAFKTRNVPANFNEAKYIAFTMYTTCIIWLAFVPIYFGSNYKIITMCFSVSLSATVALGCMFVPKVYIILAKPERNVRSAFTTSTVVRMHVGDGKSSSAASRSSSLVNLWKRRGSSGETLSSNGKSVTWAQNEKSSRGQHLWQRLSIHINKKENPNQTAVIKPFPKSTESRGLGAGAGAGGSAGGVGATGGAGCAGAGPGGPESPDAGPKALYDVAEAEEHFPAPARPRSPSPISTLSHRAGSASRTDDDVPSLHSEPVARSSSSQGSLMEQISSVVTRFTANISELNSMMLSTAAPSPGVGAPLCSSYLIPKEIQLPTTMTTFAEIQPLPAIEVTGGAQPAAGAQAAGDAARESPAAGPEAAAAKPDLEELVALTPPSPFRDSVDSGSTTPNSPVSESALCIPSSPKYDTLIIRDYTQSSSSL
procedure_text: mGluR5 FLIPR Assay
cond: positive modulator activity; HEK293 (ZF) cells with human mGluR5A and rat GLAST; Ca++ response to ~EC10 glutamate
Protocol: HEK293 (ZF) cells stably transfected with human mGluR5A (pIRES neo) and the rat glutamate-aspartate transporter (GLAST; pIRES puro) are grown in a monolayer culture at 37° C. in 5% CO2 and fed with Minimum Essential Medium (MEM) supplemented with 10% dialysed fetal bovine serum. […] Test compounds are incubated with cells in the presence of dye for 10 minutes prior to being read on the FLIPR platform (Molecular Devices). […]
Each entry below carries its recorded EC50.

>>> df
                                   compound                            assayed_target  value_type  measurement
0  O=C1N[C@H](c2cncc(C#Cc3cccnc3)c2)[C@@H](c2ccc(F)cc2)O1 (single isomer, unassigned) [Example 43]  human mGluR5A (Homo sapiens, UniProt P41594)        EC50     < 100 nM
1  O=C1N[C@H](c2cncc(C#Cc3cncc(F)c3)c2)[C@@H](c2cc(F)ccc2F)O1 [Example 187]  human mGluR5A (Homo sapiens, UniProt P41594)        EC50     < 100 nM
2  O=C1N[C@H](c2cc(C#Cc3cccc(Cl)c3)ccn2)[C@@H](c2ccc(F)cc2)O1 (single isomer, unassigned) [Example 347]  human mGluR5A (Homo sapiens, UniProt P41594)        EC50    > 1000 nM
3  COc1cccc([C@H]2OC(=O)N[C@@H]2c2cccc(C#Cc3ccc(C(F)(F)F)cc3)c2)c1 [Example 119]  human mGluR5A (Homo sapiens, UniProt P41594)        EC50    > 1000 nM
4  O=C1N[C@H](c2cccc(C#Cc3cncc(F)c3)c2)[C@@H](c2ccncn2)O1 [Example 244]  human mGluR5A (Homo sapiens, UniProt P41594)        EC50    > 1000 nM

Incoming: Enter reported EC50 observed with human mGluR5A (Homo sapiens, UniProt P41594) for O=C1N[C@H](c2cncc(C#Cc3ccccc3)c2)[C@@H](c2ccc(F)c(F)c2)O1 [Example 172]
Outgoing: < 100 nM

Incoming: Find EC50 (human mGluR5A (Homo sapiens, UniProt P41594)) for the entry O=C1N[C@H](c2ccnc(C#Cc3ccccc3)c2)[C@@H](c2ccccc2)O1 [Example 20]
Outgoing: < 100 nM
